Here, each record is paired with measured Ki data.
- target_or_system: T1, NCoA-1 (UniProt Q15788 257-385, limits assumed)
- T1 construct: also called SRC-1
- T1 sequence (looked up): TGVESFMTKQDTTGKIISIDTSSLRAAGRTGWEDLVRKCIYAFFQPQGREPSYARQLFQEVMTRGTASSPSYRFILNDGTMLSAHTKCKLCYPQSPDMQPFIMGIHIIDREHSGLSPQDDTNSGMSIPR
- procedure_summary: competition fluorescence polarization; displacement of FluoSTAT6 from NCoA-1
Numbered stars: 1 amine (or outer) side, 2 acyl side, 3 side chain; on linkers, the order of the positions; unused ones are H or OH. Square brackets hold non-standard residues; d marks the D form. Pro(4S-SH) = O=C([C@@H]1C[C@H](S[*:3])CN1[*:1])[*:2]; Trp(6-Cl) = N[C@@H](Cc1c[nH]c2cc(Cl)ccc12)C(=O)O; Oic = O=C(O)[C@@H]1C[C@@H]2CCCC[C@@H]2N1

These recorded examples may help you get a feel for the data.
Q: For the binder shown here, cyclo(FT[Trp(6-Cl)]LAWEF[dP][Pro(4S-SH)]) (SMILES CC(C)C[C@@H]1NC(=O)[C@H](Cc2c[nH]c3cc(Cl)ccc23)NC(=O)[C@H]([C@@H](C)O)NC(=O)[C@H](Cc2ccccc2)NC(=O)[C@@H]2C[C@H](S)CN2C(=O)[C@H]2CCCN2C(=O)[C@H](Cc2ccccc2)NC(=O)[C@H](CCC(=O)O)NC(=O)[C@H](Cc2c[nH]c3ccccc23)NC(=O)[C@H](C)NC1=O, cyclo(-P1..P8-template-)) [Ex. 5] , give the reported Ki.
Ans: 3.8 µM

Q: Another binder to check: cyclo(FEWLAWEE[dP]P) (SMILES CC(C)C[C@@H]1NC(=O)[C@H](Cc2c[nH]c3ccccc23)NC(=O)[C@H](CCC(=O)O)NC(=O)[C@H](Cc2ccccc2)NC(=O)[C@@H]2CCCN2C(=O)[C@H]2CCCN2C(=O)[C@H](CCC(=O)O)NC(=O)[C@H](CCC(=O)O)NC(=O)[C@H](Cc2c[nH]c3ccccc23)NC(=O)[C@H](C)NC1=O, cyclo(-P1..P8-template-)) [Ex. 20]
Ans: 11.5 µM

Q: Another binder to check: cyclo(FEWLGWEF[dP]P) (SMILES CC(C)C[C@@H]1NC(=O)[C@H](Cc2c[nH]c3ccccc23)NC(=O)[C@H](CCC(=O)O)NC(=O)[C@H](Cc2ccccc2)NC(=O)[C@@H]2CCCN2C(=O)[C@H]2CCCN2C(=O)[C@H](Cc2ccccc2)NC(=O)[C@H](CCC(=O)O)NC(=O)[C@H](Cc2c[nH]c3ccccc23)NC(=O)CNC1=O, cyclo(-P1..P8-template-)) [Ex. 8]
Ans: 3 µM

Q: Another binder to check: cyclo(FEWLAWLF[dP]P) (SMILES CC(C)C[C@@H]1NC(=O)[C@H](Cc2c[nH]c3ccccc23)NC(=O)[C@H](CCC(=O)O)NC(=O)[C@H](Cc2ccccc2)NC(=O)[C@@H]2CCCN2C(=O)[C@H]2CCCN2C(=O)[C@H](Cc2ccccc2)NC(=O)[C@H](CC(C)C)NC(=O)[C@H](Cc2c[nH]c3ccccc23)NC(=O)[C@H](C)NC1=O, cyclo(-P1..P8-template-)) [Ex. 24]
Ans: 24.3 µM

More entries:
Q: For the binder shown here, cyclo(FLWLAWEF[dP]P) (SMILES CC(C)C[C@@H]1NC(=O)[C@H](Cc2c[nH]c3ccccc23)NC(=O)[C@H](CC(C)C)NC(=O)[C@H](Cc2ccccc2)NC(=O)[C@@H]2CCCN2C(=O)[C@H]2CCCN2C(=O)[C@H](Cc2ccccc2)NC(=O)[C@H](CCC(=O)O)NC(=O)[C@H](Cc2c[nH]c3ccccc23)NC(=O)[C@H](C)NC1=O, cyclo(-P1..P8-template-)) [Ex. 22] , give the reported Ki.
Ans: 8.9 µM

Q: Another binder to check: cyclo(FEWLAWEW[dP][Oic]) (SMILES CC(C)C[C@@H]1NC(=O)[C@H](Cc2c[nH]c3ccccc23)NC(=O)[C@H](CCC(=O)O)NC(=O)[C@H](Cc2ccccc2)NC(=O)[C@@H]2C[C@@H]3CCCC[C@@H]3N2C(=O)[C@H]2CCCN2C(=O)[C@H](Cc2c[nH]c3ccccc23)NC(=O)[C@H](CCC(=O)O)NC(=O)[C@H](Cc2c[nH]c3ccccc23)NC(=O)[C@H](C)NC1=O, cyclo(-P1..P8-template-)) [Ex. 3]
Ans: 6.2 µM

Q: Another binder to check: cyclo(MEWLDWEF[dP]P) (SMILES CSCC[C@@H]1NC(=O)[C@@H]2CCCN2C(=O)[C@H]2CCCN2C(=O)[C@H](Cc2ccccc2)NC(=O)[C@H](CCC(=O)O)NC(=O)[C@H](Cc2c[nH]c3ccccc23)NC(=O)[C@H](CC(=O)O)NC(=O)[C@H](CC(C)C)NC(=O)[C@H](Cc2c[nH]c3ccccc23)NC(=O)[C@H](CCC(=O)O)NC1=O, cyclo(-P1..P8-template-)) [Ex. 27]
Ans: 7.9 µM

Q: Another binder to check: cyclo(FE[Trp(6-Cl)]LDWAF[dP]P) (SMILES CC(C)C[C@@H]1NC(=O)[C@H](Cc2c[nH]c3cc(Cl)ccc23)NC(=O)[C@H](CCC(=O)O)NC(=O)[C@H](Cc2ccccc2)NC(=O)[C@@H]2CCCN2C(=O)[C@H]2CCCN2C(=O)[C@H](Cc2ccccc2)NC(=O)[C@H](C)NC(=O)[C@H](Cc2c[nH]c3ccccc23)NC(=O)[C@H](CC(=O)O)NC1=O, cyclo(-P1..P8-template-)) [Ex. 13]
Ans: 2 µM
